Record form. Attribute: apparent KD of MS2 coat protein. Fill in for each entry.
- System: MS2 coat protein
- ASSAY_NAME: apparent KD of MS2 coat protein; higher = weaker reporter binding
- RECORDED_CONDITIONS: Eterna round: R107; input ligand: none
One number for each entry, in nM.

[[record]]
residue_sequence = "ACAUGAGGAUCACCCAUGUAGCGUAGGGAAGGAGCGGAAUAGAGUCCAGGUAGGUCGCCCAUAUGAUGAUCUCACUUAUUAUCGA [#13 Same State - Arginine A]"
measurement_label = "apparent KD of MS2 coat protein"
numeric_readout = 21.1


For every item in the list below, what is its measured apparent KD of MS2 coat protein?
1. CGGCCCUCACUUGAGGAUCACCCAAGUGAUACCAGCCUGGAAACAGGCCCUUGGCAGCACUAGGUCAUCAAAGAUGACCAAGCCG [TheoAX 28 #OpenEnded #AlternativeMS2]
2. AGCUCGCGAAAGCGAGCAACAUGAUCCGAAGGAGCGGGCGAAAGCCCAGGUAGGUCGCGGACAUGAGGAUCACCCAUGUCUCCUU [MAT - Exclusion Arginine A - Mod of Eli - D13]

Reply:
1. 12.8
2. 70.9

Provide the reported apparent KD of MS2 coat protein of each entry below, same order.
1. CGGGUUCGGGCGGCCGCCACUUUGAUUGGGUGUGACAUGAGGAUCACCCAUGUUGUGGGUGAUCGGAGGACCGGGUUUGGGCUUG [Fidorka]
2. UCACGACGCAACGUGAGAUAAUGAACAGAAGGAGCGAGGAGAGCCUCAGGUAGGUCGCUGACAUGAGGAUCACCCAUGUAUUACA [Same State Arginine A GF6]

Reply:
[65.6, 82.8]

The measurements presented in this section are drawn from the supplement of paper PMC9170038.
